Attribution: patent EP0559893A1

Tested on: dd male mice
Test Details: Acute toxicity test
Type: in vivo
Stated Conditions: oral administration; mortality observed 7 days after the administration
Recorded Endpoint: MLD

Item Smiles	System Tested	Recorded Endpoint	Recorded Result
CCCn1c(=O)c2c(nc(/C=C/c3ccc(OC)cc3)n2C)n(CCC)c1=O	dd male mice	MLD	>300 mg/kg
CCCn1c(=O)c2c(nc(/C=C/c3ccc(OC)c(OC)c3)n2C)n(CCC)c1=O	dd male mice	MLD	>300 mg/kg
CCCn1c(=O)c2nc(/C=C/c3ccc(Cl)cc3)[nH]c2n(CCC)c1=O	dd male mice	MLD	>300 mg/kg
CCCn1c(=O)c2c(nc(/C=C/c3cccs3)n2C)n(CCC)c1=O	dd male mice	MLD	>300 mg/kg
CCCn1c(=O)c2[nH]c(/C=C/c3cccs3)nc2n(CCC)c1=O	dd male mice	MLD	>300 mg/kg
CCCn1c(=O)c2nc(/C=C/c3cc(OC)c(OC)c(OC)c3)[nH]c2n(CCC)c1=O	dd male mice	MLD	>300 mg/kg
CCCn1c(=O)c2nc(/C=C/c3ccc(Cl)c(Cl)c3)[nH]c2n(CCC)c1=O	dd male mice	MLD	>300 mg/kg
CCCn1c(=O)c2c(nc(/C=C/c3cc(OC)c(OC)c(OC)c3)n2C)n(CCC)c1=O	dd male mice	MLD	>300 mg/kg

###

inhibition at 100 µM overview
System Tested: Adenosine A₁ receptor (Cavia porcellus)
Sequence (P47745 1-326): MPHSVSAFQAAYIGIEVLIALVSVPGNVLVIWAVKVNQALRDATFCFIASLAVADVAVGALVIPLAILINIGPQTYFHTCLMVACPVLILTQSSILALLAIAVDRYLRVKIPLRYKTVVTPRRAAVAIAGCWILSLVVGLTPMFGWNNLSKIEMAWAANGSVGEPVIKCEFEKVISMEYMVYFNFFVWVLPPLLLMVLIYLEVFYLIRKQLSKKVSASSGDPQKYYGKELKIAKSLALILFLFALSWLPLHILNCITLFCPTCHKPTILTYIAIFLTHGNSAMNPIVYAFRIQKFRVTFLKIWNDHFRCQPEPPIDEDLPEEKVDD
Test Details: Adenosine A1 receptor binding test (3H-CHA binding)
Stated Conditions: read-out: A1 Receptor Inhibition (%) 10^-4 M

Item Smiles	inhibition at 100 µM / %
CCCn1c(=O)c2c(nc(/C=C/c3cc(OC)c(OC)c(OC)c3)n2C)n(CCC)c1=O	50
CCCn1c(=O)c2c(nc(/C=C/c3ccc(OC)cc3)n2C)n(CCC)c1=O	86
CCCn1c(=O)c2c(nc(/C=C/c3ccccc3)n2C)n(CCC)c1=O	82
CCCn1c(=O)c2c(nc(/C=C/c3ccc(OC)c(OC)c3)n2C)n(CCC)c1=O	74
C=CCn1c(=O)c2c(nc(/C=C/c3cc(OC)c(OC)c(OC)c3)n2C)n(CC=C)c1=O	31

###

System Tested: Adenosine A₂ receptor (Rattus norvegicus, UniProt P30543)
Sequence (P30543 whole entry): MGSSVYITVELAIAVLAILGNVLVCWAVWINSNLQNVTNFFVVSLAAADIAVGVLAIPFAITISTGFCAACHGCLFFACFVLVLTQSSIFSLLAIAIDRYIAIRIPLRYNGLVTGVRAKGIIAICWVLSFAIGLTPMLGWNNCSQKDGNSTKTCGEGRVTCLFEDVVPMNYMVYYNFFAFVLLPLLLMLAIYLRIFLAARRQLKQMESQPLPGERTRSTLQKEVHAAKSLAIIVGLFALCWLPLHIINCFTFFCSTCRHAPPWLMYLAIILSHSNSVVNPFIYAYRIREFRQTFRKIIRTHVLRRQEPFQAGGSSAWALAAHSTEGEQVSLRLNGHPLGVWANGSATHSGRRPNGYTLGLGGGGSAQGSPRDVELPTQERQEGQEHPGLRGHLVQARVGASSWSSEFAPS
Test Details: Adenosine A2 receptor binding test (3H-NECA binding)
Stated Conditions: read-out: A2 Receptor Inhibition (%) 10^-4 M

Molecule	Quantity Unit	inhibition at 100 µM
C=CCn1c(=O)c2c(nc(/C=C/c3cc(OC)c(OC)c(OC)c3)n2C)n(CC=C)c1=O [Compound 24]	%	96
CCCn1c(=O)c2c(nc(/C=C/c3cc(OC)c(OC)c(OC)c3)n2C)n(CCC)c1=O [Compound 14]	%	92
CCCn1c(=O)c2c(nc(/C=C/c3ccccc3)n2C)n(CCC)c1=O [Compound 2]	%	96
CCCn1c(=O)c2c(nc(/C=C/c3ccc(OC)cc3)n2C)n(CCC)c1=O [Compound 10]	%	95
CCCn1c(=O)c2c(nc(/C=C/c3ccc(OC)c(OC)c3)n2C)n(CCC)c1=O [Compound 12]	%	97

###

System Tested: Adenosine A₁ receptor (Cavia porcellus, UniProt P47745)
Sequence (P47745 1-326): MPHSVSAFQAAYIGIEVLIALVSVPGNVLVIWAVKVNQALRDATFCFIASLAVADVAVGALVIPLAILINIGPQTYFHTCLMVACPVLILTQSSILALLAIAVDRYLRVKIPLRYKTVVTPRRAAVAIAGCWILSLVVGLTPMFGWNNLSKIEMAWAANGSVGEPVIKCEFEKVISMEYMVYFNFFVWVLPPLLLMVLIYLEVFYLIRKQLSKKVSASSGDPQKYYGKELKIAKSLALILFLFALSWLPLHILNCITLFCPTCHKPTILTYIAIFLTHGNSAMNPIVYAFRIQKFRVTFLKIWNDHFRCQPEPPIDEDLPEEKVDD

Item Smiles	Value Comparator	Ki (µM)
CCCn1c(=O)c2c(nc(/C=C/c3ccc(OC)cc3)n2C)n(CCC)c1=O	=	2
CCCn1c(=O)c2c(nc(/C=C/c3ccccc3)n2C)n(CCC)c1=O	=	1.4
CCCn1c(=O)c2c(nc(/C=C/c3ccc(OC)c(OC)c3)n2C)n(CCC)c1=O	=	3.1
CCCn1c(=O)c2c(nc(/C=C/c3cc(OC)c(OC)c(OC)c3)n2C)n(CCC)c1=O	=	65
C=CCn1c(=O)c2c(nc(/C=C/c3cc(OC)c(OC)c(OC)c3)n2C)n(CC=C)c1=O	>	100

###

System Tested: Adenosine A₁ receptor (Cavia porcellus)
Test Details: Adenosine A1 receptor binding test (3H-CHA binding)
Stated Conditions: read-out: A1 Receptor Inhibition (%) 10^-5 M
Classify by measured inhibition at 10 µM: 1 if it is equal to or exceeds 60%, -1 if it is smaller.

Item Smiles	Cat
C=CCn1c(=O)c2c(nc(/C=C/c3cc(OC)c(OC)c(OC)c3)n2C)n(CC=C)c1=O	-1
CCCn1c(=O)c2c(nc(/C=C/c3cc(OC)c(OC)c(OC)c3)n2C)n(CCC)c1=O	-1
CCCn1c(=O)c2c(nc(/C=C/c3ccc(OC)cc3)n2C)n(CCC)c1=O	1
CCCn1c(=O)c2c(nc(/C=C/c3ccccc3)n2C)n(CCC)c1=O	1
